Origin of measurements: patent US20260167721A1

Give measured kon for each item. Keep answers brief.
- assayed-target: T1, recombinant human CD3 epsilon/gamma heterodimer (human, UniProt P07766 23-126; P09693 23-116)
- T1 construct: Recombinant heterodimer used as analyte in Octet; also called hCD3 E/G
- T1 sequence (P07766 23-126, chain 1 of 2): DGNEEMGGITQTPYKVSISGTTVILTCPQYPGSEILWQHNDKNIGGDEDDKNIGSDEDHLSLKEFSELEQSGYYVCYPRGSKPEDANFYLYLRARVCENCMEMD
- T1 sequence (P09693 23-116, chain 2 of 2): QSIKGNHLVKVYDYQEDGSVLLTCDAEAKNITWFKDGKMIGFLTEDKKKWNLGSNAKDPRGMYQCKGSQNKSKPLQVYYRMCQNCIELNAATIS
- test-method-notes: BLI (Octet), mAb 5 ug/mL on FAB2G sensor, hCD3 E/G 200-50 nM;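 further: antibodies purified from hybridoma supernatants, measured by Octet binding to recombinant human CD3 protein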
Respond numerically; units are M⁻¹ s⁻¹ and should not be typed.

Query :: So what does the record say about kon for ABL-CD3-66 (antibody, V domains shown, mAb purified from hybridoma; chimeric AlivaMab IgG (human VH, CH1 and upper hinge; mouse middle hinge, CH2, CH3; human light chain)) VH: QVQLQESGPGLVKPSETLSLTCTVSGGSISSYYWSWIRQPAGKGLEWIGRIYASGSTYYNPSLKSRVTMSVDTSKNQFSLKLSSVTAADTAVYYCAREKRSRLYFDYWGQGTLVTVSS VL: NFMLTQPHSVSESPGKTVTISCTRSSGSIASNYVQWYQQRPGSSPTTVIYEDNQRPSGVPDRFSGSIDSSSNSASLTISGLKTEDEGDYYCQSYDRSNRVFGGGTKLTVL ?
Result :: 923000

Query :: Now consider ABL-CD3-83 (antibody, V domains shown, mAb purified from hybridoma; chimeric AlivaMab IgG (human VH, CH1 and upper hinge; mouse middle hinge, CH2, CH3; human light chain)) VH: EVQLVESGGGLVKPGGSLRLSCAASGFTFSSYSMNWVRQAPGKGLEWVSTISRSGGYIYDADSVKGRFTISRDNAKNSLYLQMNSLRAEDTAVYYCARDFNWTFDNWGQGTLVTVSS VL: NFMLTQPHSVSESPGKTVTISCTRSSGSIASNYVQWYQQRPGSSPTTVIYEDNQRPSGVPDRFSGSIDSSSNSASLTISGLKTEDEADYYCQSSDRSNVVFGGGTKLTVL and answer again.
Result :: 173000

Query :: Now consider ABL-CD3-84 (antibody, V domains shown, mAb purified from hybridoma; chimeric AlivaMab IgG (human VH, CH1 and upper hinge; mouse middle hinge, CH2, CH3; human light chain)) VH: EVQLVESGGGLVKPGGSLRLSCAASGFTFSNFIMNWVRQAPGKGLEWVSSISGSSNYIYYADSVKGRFTISGDNAKNSLYLQMNSLRAEDTAVYYCAREKWVLLFFDYWGQGTLVTVSS VL: NFMLTQPHSVSESPGKTVTISCTRSSGSIASNYVQWYQQRPGSSPTTMIYEDTQRPSGVPDRFSGSIDSSSNSASLTISGLKTEDEADYYCQSYDSSNRVFGGGTKLTVL and answer again.
Result :: 424000

Query :: Now consider ABL-CD3-82 (antibody, V domains shown, mAb purified from hybridoma; chimeric AlivaMab IgG (human VH, CH1 and upper hinge; mouse middle hinge, CH2, CH3; human light chain)) VH: EVQLVESGGGLVKPGGSLRLSCAASGFTFSSYSMNWVRQAPGKGLEWVSSISSSSSYIYYADSVKGRFTISRDNAKNSLYLQMNSLRAEDTAVYYCARDRRELLLDYWGQGTLVTVSS VL: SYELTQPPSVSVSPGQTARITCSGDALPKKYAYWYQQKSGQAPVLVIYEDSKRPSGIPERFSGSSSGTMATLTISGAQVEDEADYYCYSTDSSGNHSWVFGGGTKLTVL and answer again.
Result :: 620000

Query :: Now consider ABL-CD3-69 (antibody, V domains shown, mAb purified from hybridoma; chimeric AlivaMab IgG (human VH, CH1 and upper hinge; mouse middle hinge, CH2, CH3; human light chain)) VH: EVQLVESGGGLVKPGGSLRLSCAASGFTFSTYTMNWVRQAPGKGLEWVSTITSSSRYIYYADSVKGRFTISRDNAKNSLYLQMNSLRAEDTAVYYCARVTFDAFDIWGQGTMVTVSS VL: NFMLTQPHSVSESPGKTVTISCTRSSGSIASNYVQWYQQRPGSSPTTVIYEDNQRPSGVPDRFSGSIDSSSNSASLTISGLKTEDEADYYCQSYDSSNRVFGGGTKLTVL and answer again.
Result :: 86100

Query :: Now consider ABL-CD3-77 (antibody, V domains shown, mAb purified from hybridoma; chimeric AlivaMab IgG (human VH, CH1 and upper hinge; mouse middle hinge, CH2, CH3; human light chain)) VH: EVQLVESGGGLVKPGGSLRLSCAASGFTFSSYSMNWVRQAPGKGLEWVSSISSSSSYIYYADSVKGRFTISRDNAKNSLYLQMNSLRAEDTAVYYCARDGELGIGTYFDYWGQGTLVTVSS VL: QSVLTQPPSVSGAPGQRVTISCTGSSSNIGAGYDVHWYQQLPGTAPKLLIYGNSNRPSGVPDRFSGSKSGTSASLAITGLQAEDEADYYCQSYDSSLSGSVFGGGTKLTVL and answer again.
Result :: 50000

Query :: Now consider ABL-CD3-85 (antibody, V domains shown, mAb purified from hybridoma; chimeric AlivaMab IgG (human VH, CH1 and upper hinge; mouse middle hinge, CH2, CH3; human light chain)) VH: EVQLVESGGGLVKPGGSLRLSCAASGFTFSSYSMNWVRQAPGKGLEWVSSISRRSGYIYYADSVKGRFTLSRDNAKKSLYLQMNSLRAEDTAVYYCARDLNWAFDYWGQGTLVTVSS VL: NFMLTQPHSVSESPGKTVTISCTRSSGSIASNYVQWYQQRPGSSPTTVIYEDNHRPSGVPDRFSGSIDSSSNSASLTIAGLKTEDEADYYCQSCDSSNVVFGGGTKLTVL and answer again.
Result :: 204000

Query :: Now consider ABL-CD3-74 (antibody, V domains shown, mAb purified from hybridoma; chimeric AlivaMab IgG (human VH, CH1 and upper hinge; mouse middle hinge, CH2, CH3; human light chain)) VH: EVQLVESGGGLVKPGGSLRLSCAASGFTFSSYSMKWVRQAPGKGLEWVSSISSSSSYIYYADSVKGRFTISRDNAKNSLYLQMNSLRAEDTAVYYCARDRGELTLWYWGQGTLVTVSS VL: SYELTQPPSVSVSPGQTARITCSGDALPKKYAYWYQQKSGQAPVLVIYEDSKRPSGIPERFSGSSSGTMATLTISGAQVEDEADYYCYSTDSSGNHWVFGGGTKLTVL and answer again.
Result :: 492000

Query :: Now consider ABL-CD3-67 (antibody, V domains shown, mAb purified from hybridoma; chimeric AlivaMab IgG (human VH, CH1 and upper hinge; mouse middle hinge, CH2, CH3; human light chain)) VH: EVQLVESGGGLVKPGGSLRLSCAASGFTVSSYSMNWVRQAPGKGLEWVSSISRSSSYIYYADSVKGRFTISRDNAKNSLFLQMNSLRAEDTAVYYCARERWELLYFDYWGQGTLVTVSS VL: NFMLTQPHSVSESPGKTVTISCTRSSGSIASNYVQWYRQRPGSSPTTVIYEDNQRPSGVPDRFSGAIDSSSTSASLTISGLKTEDEADYYCQSYDSSNRVFGGGTKLTVL and answer again.
Result :: 163000

Query :: Now consider ABL-CD3-64 (antibody, V domains shown, mAb purified from hybridoma; chimeric AlivaMab IgG (human VH, CH1 and upper hinge; mouse middle hinge, CH2, CH3; human light chain)) VH: EVQVAESGGGLVKPGGSLRLSCAASGFTFSRYSMNWVRQAPGKGLEWVSSISSSGSYTYYADSVKGRFTISRDNAKNSLYLQMNSLRAEDTAVYYCVRERGKGAGMDVWGQGTTVTVSS VL: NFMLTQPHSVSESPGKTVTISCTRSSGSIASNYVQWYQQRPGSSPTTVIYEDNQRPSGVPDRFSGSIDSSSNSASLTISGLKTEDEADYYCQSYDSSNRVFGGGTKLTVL and answer again.
Result :: 180000
